Value source: the kinase profiling compilation of Christmann-Franck et al. (2016)

Provide the recorded residual activity for the entries that follow.
assay.target: TEC (human)
run.description: radiometric filter-binding kinase assay, Kinase HotSpot
measurement.context: compound 0.5 µM; ATP 10 µM
Answers are plain numbers, in %.

The cases that follow already have their residual activity on record.
compound.structure.string | assay.target | units.label | residual activity
c1ccc(-c2cnc(Nc3ccc(OCCN4CCCC4)cc3)s2)cc1 | TEC (human) | % | 106
Nc1ncnc2c1cnn2-c1ccccc1 | TEC (human) | % | 103
O=C1NC(=O)c2c1c1c3ccccc3[nH]c1c1[nH]c3cc(Br)ccc3c21 | TEC (human) | % | 105

Provide each entry's residual activity from the list below.
1. CCOc1cc2ncnc(Nc3cccc(Br)c3)c2cc1OCC
2. COc1cccc(-c2cc(=O)c3ccccc3o2)c1N

*A*
120
99.2

----------
assay.target: BRSK1 (human)
run.description: radiometric filter-binding kinase assay, Kinase HotSpot
measurement.context: compound 0.5 µM; ATP 10 µM
Provide the recorded residual activity for the entries that follow.
Numbers only, in %.

compound.structure.string | assay.target | value.kind | units.label | reported.result
O=S(=O)(NCCNC/C=C/c1ccc(Br)cc1)c1cccc2cnccc12 | BRSK1 (human) | residual activity | % | 92
O=c1c(-c2ccc(F)cc2)c(-c2ccncc2)[nH]n1-c1ccc(Cl)cc1 | BRSK1 (human) | residual activity | % | 88.7
COc1cc2ncnc(Nc3ccc(O)c(Br)c3)c2cc1OC | BRSK1 (human) | residual activity | % | 81.6

Provide each entry's residual activity from the list below.
1. COc1cc2c(cc1OC)-c1[nH]nc(Nc3cccc(F)c3)c1C2
2. Nc1ncnc2c1cnn2-c1ccccc1
3. O=C(O)c1ccc2c3c1cccc3c(=O)n1c3ccccc3nc21

*A*
[89.3, 90.2, 89]

----------
assay.target: STK11 (human) (UniProt Q15831)
Sequence (Q15831 whole entry, looked up): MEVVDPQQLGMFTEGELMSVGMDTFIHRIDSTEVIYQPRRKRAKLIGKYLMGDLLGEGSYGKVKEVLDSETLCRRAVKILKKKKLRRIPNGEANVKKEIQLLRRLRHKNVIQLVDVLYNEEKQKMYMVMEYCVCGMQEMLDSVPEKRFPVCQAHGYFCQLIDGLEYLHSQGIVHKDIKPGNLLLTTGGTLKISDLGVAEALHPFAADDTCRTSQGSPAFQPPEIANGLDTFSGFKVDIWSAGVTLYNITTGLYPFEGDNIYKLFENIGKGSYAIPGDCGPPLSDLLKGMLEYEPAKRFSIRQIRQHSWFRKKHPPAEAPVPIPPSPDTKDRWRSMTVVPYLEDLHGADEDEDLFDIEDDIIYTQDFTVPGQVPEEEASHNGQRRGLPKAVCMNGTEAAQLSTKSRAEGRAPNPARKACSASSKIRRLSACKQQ
run.description: radiometric filter-binding kinase assay, Kinase HotSpot
measurement.context: compound 0.5 µM; ATP 10 µM
Provide the recorded residual activity for the entries that follow.
Give bare numbers, in %.

The cases that follow already have their residual activity on record.
compound.structure.string | residual activity / %
O=c1c(-c2ccc(F)cc2)c(-c2ccncc2)[nH]n1-c1ccc(Cl)cc1 | 98.8
COc1cccc(-c2cc(=O)c3ccccc3o2)c1N | 101
CCc1nc(-c2ccc(OC)cc2)[nH]c1-c1ccncc1 | 89.5
O=c1[nH]c2ccccc2n1C1CCN(Cc2ccc(-c3nc4cc5[nH]cnc5cc4nc3-c3ccccc3)cc2)CC1 | 95.6

# evaluate next
*Q* Param readout= residual activity; system= STK11 (human) (UniProt Q15831); entry= Nc1ncnc2c1cnn2-c1ccccc1 ; returns value.
*A* 93.9

----------
assay.target: NEK11 (human) (UniProt Q8NG66)
Sequence (Q8NG66 whole entry, looked up): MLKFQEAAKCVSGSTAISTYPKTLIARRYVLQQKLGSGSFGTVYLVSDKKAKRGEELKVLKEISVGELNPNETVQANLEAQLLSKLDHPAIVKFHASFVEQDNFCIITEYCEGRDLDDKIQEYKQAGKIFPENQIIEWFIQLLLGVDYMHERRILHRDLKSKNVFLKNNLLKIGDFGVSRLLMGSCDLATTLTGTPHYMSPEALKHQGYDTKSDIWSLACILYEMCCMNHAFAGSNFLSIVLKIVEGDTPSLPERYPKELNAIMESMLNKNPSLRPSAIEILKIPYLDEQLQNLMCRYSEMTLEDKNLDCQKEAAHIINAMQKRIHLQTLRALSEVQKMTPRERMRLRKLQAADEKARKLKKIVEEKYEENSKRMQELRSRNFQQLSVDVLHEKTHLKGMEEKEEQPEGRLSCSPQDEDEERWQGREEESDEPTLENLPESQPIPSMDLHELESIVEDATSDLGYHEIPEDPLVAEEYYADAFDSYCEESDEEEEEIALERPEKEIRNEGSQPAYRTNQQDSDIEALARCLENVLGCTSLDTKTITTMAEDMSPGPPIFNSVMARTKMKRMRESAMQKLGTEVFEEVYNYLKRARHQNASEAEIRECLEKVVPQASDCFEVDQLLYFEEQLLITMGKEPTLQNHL
run.description: radiometric filter-binding kinase assay, Kinase HotSpot
measurement.context: compound 0.5 µM; ATP 10 µM
value.kind: residual activity (%)
Answers are plain numbers, in %.

The cases that follow already have their residual activity on record.
compound.structure.string | assay.target | residual activity, %
Nc1ncnc2c1cnn2-c1ccccc1 | NEK11 (human) (UniProt Q8NG66) | 107
CCCCc1c(-c2ccc(O)cc2)[nH]c2nccnc12 | NEK11 (human) (UniProt Q8NG66) | 92.5
c1ccc(-c2cnc(Nc3ccc(OCCN4CCCC4)cc3)s2)cc1 | NEK11 (human) (UniProt Q8NG66) | 95
O=c1[nH]c2ccccc2n1C1CCN(Cc2ccc(-c3nc4cc5[nH]cnc5cc4nc3-c3ccccc3)cc2)CC1 | NEK11 (human) (UniProt Q8NG66) | 86.4
O=C(O)c1ccc2c3c1cccc3c(=O)n1c3ccccc3nc21 | NEK11 (human) (UniProt Q8NG66) | 83

Provide each entry's residual activity from the list below.
1. O=C1NC(=O)c2cc(Nc3ccc(F)cc3)c(Nc3ccc(F)cc3)cc21
2. COc1cc2c(N3CCN(C(=O)Nc4ccc(OC(C)C)cc4)CC3)ncnc2cc1OCCCN1CCCCC1

*A*
1: 103; 2: 92.5

Provide each entry's residual activity from the list below.
1. O=C1NC(=O)c2c1c1c3ccccc3[nH]c1c1[nH]c3cc(Br)ccc3c21
2. Cn1cc(/C=C2\C(=O)Nc3ccc(S(N)(=O)=O)cc32)c2ccccc21
3. COc1cc2c(Nc3ccc(Br)cc3F)ncnc2cc1OCC1CCN(C)CC1
4. O=c1c2ccccc2[nH]c(=S)n1CCN1CCC(=C(c2ccc(F)cc2)c2ccc(F)cc2)CC1

*A*
[109, 96.1, 103, 94]

*Q* Quick check: residual activity of COc1cc2ncnc(Nc3ccc(O)c(Br)c3)c2cc1OC ?
*A* 103
